# assayedTarget: LEDGF/p75 IBD-HIV-1 IN interaction (Homo sapiens, UniProt O75475)
# Sequence (O75475 347-429 limits assumed): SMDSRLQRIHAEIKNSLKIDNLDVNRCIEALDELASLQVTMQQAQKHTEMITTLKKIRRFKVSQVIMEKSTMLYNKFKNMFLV
# protocolDetails: HTRF-based LEDGF/p75 IBD-IN interaction assay
# assaySetup: HTRF, 12-point dose-response 0.024 to 50 µM, His6-HIV-1 IN 50 nM, GST-IBD

compound: NC(=O)CI [Iodoacetamide]
IC50: > 1e+07 nM

----------
A collection of compounds and their measured pIC50
# assayedTarget: LEDGF/p75 IBD-HIV-1 IN interaction (Homo sapiens)
# protocolDetails: HTRF-based LEDGF/p75 IBD-IN interaction assay
pIC50: −log10 of the molar value.

compound: O=S(=O)(c1c(O)c(Cl)cc(Cl)c1Cl)c1c(O)c(Cl)cc(Cl)c1Cl [Compound 3, p38 MAP kinase inhibitor IV]
pIC50: 3.93
--
compound: O=c1c2ccccc2[se]n1-c1ccccc1 [Compound 1, 2-phenyl-1,2-benzisoselenazol-3-one]
pIC50: 5.11
--
compound: CCN(CC)C(=S)SSC(=S)N(CC)CC [Disulfiram]
pIC50: 4.63
--
compound: COc1cc(/C=C/C(=O)CC(=O)/C=C/c2ccc(O)c(OC)c2)ccc1O [Compound 2, Curcumin]
pIC50: 4.84
--
compound: CCN1C(=O)C=CC1=O [N-Ethylmaleimide]
pIC50: 3.25
